Tested on: SR
EXPERIMENTAL PROTOCOL: NCI tumour cell line growth inhibition, 48 h
The source made the active and inactive calls. Rule as the data show it: active = GI50 up to about 1.1 µM and inactive = higher.
Lab note: assign the record to one of active, inactive

Consider the worked cases shown below.
| MOLECULE | TEST SYSTEM | GROUP |
| --- | --- | --- |
| O=C1C(Cl)=C(NCCCN2CCOCC2)C(=O)c2c(O)ccc(O)c21 | SR | inactive |
| Cc1ccc(C(C)C)c(OCC(=O)N/N=C/c2c[nH]c3ccc(Br)cc23)c1 | SR | active |
| CCOC(=O)C1(C)C2=CC=C(O2)C(C)(C)C2=CC=C(O2)C(C)(C)C2=CC=C(O2)C(C)(C)C2=CC=C1O2 | SR | inactive |

Consider the record given below.
Q: // outcome(item) with item = `C[C@H]1C/C=C/[C@H]2[C@@H]3O[C@]3(C)[C@@H](C)[C@H]3[C@H](Cc4ccccc4)NC(=O)[C@]32OC(=O)O/C=C/[C@@](C)(O)C1=O`
A: active

###

Tested on: HCC 2998
EXPERIMENTAL PROTOCOL: NCI tumour cell line growth inhibition, 48 h
Calls of active or inactive are those of the source. Cut-off read from the data, not from the text of the source: active = GI50 up to about 1.1 µM and inactive = higher.
Mark one answer only. Choices: YES = active, NO = inactive

Here are 10 compounds together with their reported answers.
| COMPOUND | GROUP |
| --- | --- |
| N/N=C(\Nc1ccccc1)SCc1ccccc1 | NO |
| CCN1CCC(O)(/C=C/c2ccccc2C)C(C(=O)/C=C/c2ccccc2C)C1 (stereo unspecified) | NO |
| COC(=O)C1=C(C)N(NC(=O)c2cccc(Cl)c2)C(C)(O)C12CCOC2=O (stereo unspecified) | NO |
| CN(C(=O)c1ccc2c(c1)sc1c(=O)n(C)c3ccccc3c12)c1ccccc1 | NO |
| Cc1cc(Cl)nc2nc(Cl)c(N)cc12 | NO |
| COCCN(CCOC)C(=O)COc1c2cc(C(C)(C)C)cc1Cc1cc(C(C)(C)C)cc(c1OCC(=O)N(CCOC)CCOC)Cc1cc(C(C)(C)C)cc(c1OCC(=O)N(CCOC)CCOC)Cc1cc(C(C)(C)C)cc(c1OCC(=O)N(CCOC)CCOC)Cc1cc(C(C)(C)C)cc(c1OCC(=O)N(CCOC)CCOC)C2 | NO |
| COC(=O)C1CCc2c1c(=O)n1c([nH]c3ccccc31)c2C#N (stereo unspecified) | NO |
| COc1cc2cc(C(=O)N3CC(CCl)c4ccccc43)[nH]c2c(OC)c1OC (stereo unspecified) | NO |
| Nc1c2c(nc3ccccc13)-c1ccccc1CC2 | NO |
| CCC(=O)C(c1ccccc1)c1ccccn1 (stereo unspecified) | NO |

Q: How was `COc1ccccc1/C=C/c1nc2ccccc2o1` classified in this test?
A: NO

Q: Per the records of this test, what outcome belongs to `CC1(C)N=c2c(ncn2-c2ccccc2)=C(C(N)=O)N1` ?
A: NO

Q: Please let me know the test result on file for `Cn1c2c([N+](=O)[O-])cccc2c(=O)c2c(O)cc3c(c21)C=CC(C)(C)O3` .
A: NO

Q: Answer briefly: the call reported for `CCCCc1c2c(nc3c1CCC/C3=C\c1ccccc1)/C(=C/c1ccccc1)CCC2` in this assay.
A: NO

Q: Hi, sorry to bother you, what did the test record for `O=C1CN(c2ccc(Cl)cc2)C(=O)CN1CCN1CC(=O)N(c2ccc(Cl)cc2)CC1=O` ?
A: NO
